The values you see were collected from patent US20250084172A1.

The entries below are paired with their reported pKd.
# test.target: T1, human soluble ULBP5 (hULBP5) (human, UniProt Q6H3X3 26-218)
# T1 construct: also called sULBP5
# T1 sequence: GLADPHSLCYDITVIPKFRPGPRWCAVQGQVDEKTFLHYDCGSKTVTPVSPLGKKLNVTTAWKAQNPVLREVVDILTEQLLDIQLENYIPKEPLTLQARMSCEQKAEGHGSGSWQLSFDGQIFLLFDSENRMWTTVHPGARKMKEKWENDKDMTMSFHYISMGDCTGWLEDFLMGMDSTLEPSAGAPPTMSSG
# assay.protocol: SPR (BIACORE);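 note: soluble human and cynomolgus NKG2D ligands injected as analytes in 3-fold dilution series spanning 0.01 to 50 nM at 37 °C, reference-subtracted sensorgrams fitted to a 1:1 Langmuir model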
Bear in mind: pKd is minus log10 of a mol/L concentration; give just that figure.

| binder | measured.value |
| --- | --- |
| Humanized 6E1 (h6E1) (E-) (antibody, human IgG1, kappa, N297G, V domains shown, hIgG1 with N297G (effector negative)) VH: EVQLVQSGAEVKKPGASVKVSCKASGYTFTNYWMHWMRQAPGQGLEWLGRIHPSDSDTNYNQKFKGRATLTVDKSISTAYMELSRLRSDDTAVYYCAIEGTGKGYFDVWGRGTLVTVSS VL: DIQMTQSPSSLSASVGDRVTITCKASQDIYSYLSWFQQKPGKSPKTLIYRANRLVDGVPSRFSGSGSGQDFTLTISSLQPEDFATYYCLHYDEFPLTFGGGTKVEIKR | 8.06 |
| Humanized 1D4 (h1D4) (E-) (antibody, human IgG1, kappa, N297G, V domains shown, hIgG1 with N297G (effector negative)) VH: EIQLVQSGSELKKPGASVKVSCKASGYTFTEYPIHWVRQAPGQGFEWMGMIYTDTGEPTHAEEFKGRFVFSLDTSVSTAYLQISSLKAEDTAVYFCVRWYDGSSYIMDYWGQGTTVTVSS VL: DIQMTQSPSSLSASVGDRVTITCKASQDINSYLSWFQQKPGKSPKTLIYRANRLVDGVPSRFSGSGSGQDYTFTISSLQPEDIATYYCLQYDEFPLTFGGGTKVEIKR | 8.05 |
| Humanized 8E11 (h8E11) (E-) (antibody, human IgG1, kappa, N297G, V domains shown, hIgG1 with N297G (effector negative)) VH: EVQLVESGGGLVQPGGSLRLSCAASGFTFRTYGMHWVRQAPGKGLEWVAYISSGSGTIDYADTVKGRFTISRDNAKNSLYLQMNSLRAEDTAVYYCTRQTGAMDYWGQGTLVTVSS VL: EIVLTQSPATLSLSPGERATLSCSASSSVSYMNWYQQKPGQSPRLWIYGISNLASGVPARFSGSGSGTDFTLTISSLEPEDFAVYYCQQRSSHPLTFGGGTKVEIKR | 8.75 |

API: the following record is the query input.
Read off the recorded pKd for Humanized 7B3 (h7B3) (E-) (antibody, human IgG1, kappa, N297G, V domains shown, hIgG1 with N297G (effector negative)) VH: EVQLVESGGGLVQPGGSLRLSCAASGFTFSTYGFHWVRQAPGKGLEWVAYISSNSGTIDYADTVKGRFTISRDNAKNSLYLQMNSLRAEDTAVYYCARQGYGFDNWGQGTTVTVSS VL: DIQLTQSPSSLSASVGDRVTITCSASSRVSYMNWYQQKPGKSPKIWVYGISNLASGVPSRFSGSGSGTDFTFTISSLQPEDIATYYCQQRSSHPLTFGGGTKVEIKR
8.62
